Listed binders paired with reported % Maximum blocking
Target: T1, cynomolgus monkey IL-33 expressed with a C-terminal hexahistidine tag (cynomolgus monkey)
T1 construct: also called MfIL-33-6His; Mf-IL-33-6His
T1 chain: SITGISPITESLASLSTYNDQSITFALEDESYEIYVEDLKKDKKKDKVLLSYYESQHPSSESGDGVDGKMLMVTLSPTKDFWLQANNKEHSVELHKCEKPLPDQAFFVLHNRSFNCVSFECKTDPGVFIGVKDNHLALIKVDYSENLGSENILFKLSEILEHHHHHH
Assay: competition ELISA, 150 pM MfIL-33-6His on coated hST2-hFc
Quick reminder: number only, in %, skip the unit.

1) H1M9559N (antibody, mouse IgG1, V domains shown, Human variable domains, mouse IgG1 Fc (H1M)) VH: QVQLVESGGGVVQPGRSLRLSCAASGFTFSSYGMHWVRQAPGKGLEWVAVIWYDGRNKYYTDSVKGRFTISRDNSKNTLYLQMDSLRAEDTAVYYCARERYISSYYGGFDPWGQGALVTVSS VL: DIQMTQSPSSVSASVGDRVTITCRASQGISSWLAWYQQKPGKAPKVLIYAASSLQSGVPSRFSGSGSGTDFTLTISSLQPEDFATYYCQQANSFPFTFGPGTKLDIK: 53

Form field: reported % Maximum blocking of H4H9660P (antibody, human IgG4, V domains shown, Human IgG4 Fc (H4H)) VH: EVQLVESGGGLVQPGGSLRLSCAASGITLSSYGMSWVRQAPGKGLEWVASIFGSGGGPYYADSVKGRFTMSRDNSKNTLYLQMNSLRAEDTAVYYCAKDRYSGSYYGGFDYWGRGTLVTVSS VL: DIQMTQSPSSVSASVGDRVTITCRASQGITSWLAWYQQKPGKAPTLLIYAASSLQTGVPSRFSGSGSGTDFTLTISSLQPEHFATYYCQQANSFPPTFGGGTKVEIK
68

Form field: reported % Maximum blocking of H4H9666P (antibody, human IgG4, V domains shown, Human IgG4 Fc (H4H)) VH: QVQLVQSGAEVKKPGASVKVSCKASGYTFTSYGISWVRQAPGQGLEWMGWIRAYNGYTNYAQKFQGRVTMTTDTSTNTAYMELRTLNSDDTAVYYCARDRYSGSFHGNFDYWGQGTLVTVSS VL: DIQMTQSPSSVSASVGDRVTITCRASQGIFSWLAWYQQKPGKAPKVLIYAASNLESGVPSRFSGSGSGTDFTLTISSLQPEDFATYYCQQANSLPLTFGGGTKVEIK
40

Form field: reported % Maximum blocking of H4H9663P (antibody, human IgG4, V domains shown, Human IgG4 Fc (H4H)) VH: QVQLVQSGAEVKKPGASVKVSCKASGYTFTGHYMYWMRQAPGQGLEWMGWINPNSGGTNYAQKFQDRVTMTRDTSISTAYMELSRLRSDDTAVYYCARGRYGSSWYGGFEYWGQGTLVTVSS VL: DIQMTQSPSSVSASVGDRVTITCRASQGITSWLAWYQQKPGKAPNLLIYAAASLQSGVPSRFSGSGSGTDFTLTISSLQPEDFTTYYCQQAYSLPLTFGGGTKVEIK
81
